studySystem: p110δ/p85 (Homo sapiens)
Sequence (O00329 whole entry, species assumed): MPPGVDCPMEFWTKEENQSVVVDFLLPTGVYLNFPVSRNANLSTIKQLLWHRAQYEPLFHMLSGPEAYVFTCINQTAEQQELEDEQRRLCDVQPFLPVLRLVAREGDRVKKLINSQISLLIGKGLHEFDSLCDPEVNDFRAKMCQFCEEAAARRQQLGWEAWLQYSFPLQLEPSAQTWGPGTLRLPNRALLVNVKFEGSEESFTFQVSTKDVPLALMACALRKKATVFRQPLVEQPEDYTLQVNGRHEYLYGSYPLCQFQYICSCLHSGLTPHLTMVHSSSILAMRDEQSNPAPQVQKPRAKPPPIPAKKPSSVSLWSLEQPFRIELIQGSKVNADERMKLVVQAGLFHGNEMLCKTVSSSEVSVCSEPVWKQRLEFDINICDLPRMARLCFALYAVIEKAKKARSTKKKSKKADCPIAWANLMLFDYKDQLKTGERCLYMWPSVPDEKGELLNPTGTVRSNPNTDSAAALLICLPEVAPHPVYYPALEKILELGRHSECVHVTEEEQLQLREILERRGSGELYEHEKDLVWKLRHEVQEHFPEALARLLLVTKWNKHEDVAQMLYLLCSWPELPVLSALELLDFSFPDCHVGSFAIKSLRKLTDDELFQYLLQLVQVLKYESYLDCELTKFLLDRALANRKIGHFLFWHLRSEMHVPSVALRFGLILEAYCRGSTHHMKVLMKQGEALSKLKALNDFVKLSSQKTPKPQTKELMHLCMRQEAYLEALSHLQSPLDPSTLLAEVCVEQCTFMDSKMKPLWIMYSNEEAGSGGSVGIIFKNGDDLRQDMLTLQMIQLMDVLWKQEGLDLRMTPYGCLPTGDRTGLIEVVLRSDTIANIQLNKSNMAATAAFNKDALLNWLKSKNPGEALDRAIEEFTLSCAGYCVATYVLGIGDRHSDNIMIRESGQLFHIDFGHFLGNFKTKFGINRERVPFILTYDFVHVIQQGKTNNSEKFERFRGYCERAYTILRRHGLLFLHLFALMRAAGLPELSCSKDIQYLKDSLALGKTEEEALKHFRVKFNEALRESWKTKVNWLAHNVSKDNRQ
Sequence (P27986 whole entry partner, species assumed): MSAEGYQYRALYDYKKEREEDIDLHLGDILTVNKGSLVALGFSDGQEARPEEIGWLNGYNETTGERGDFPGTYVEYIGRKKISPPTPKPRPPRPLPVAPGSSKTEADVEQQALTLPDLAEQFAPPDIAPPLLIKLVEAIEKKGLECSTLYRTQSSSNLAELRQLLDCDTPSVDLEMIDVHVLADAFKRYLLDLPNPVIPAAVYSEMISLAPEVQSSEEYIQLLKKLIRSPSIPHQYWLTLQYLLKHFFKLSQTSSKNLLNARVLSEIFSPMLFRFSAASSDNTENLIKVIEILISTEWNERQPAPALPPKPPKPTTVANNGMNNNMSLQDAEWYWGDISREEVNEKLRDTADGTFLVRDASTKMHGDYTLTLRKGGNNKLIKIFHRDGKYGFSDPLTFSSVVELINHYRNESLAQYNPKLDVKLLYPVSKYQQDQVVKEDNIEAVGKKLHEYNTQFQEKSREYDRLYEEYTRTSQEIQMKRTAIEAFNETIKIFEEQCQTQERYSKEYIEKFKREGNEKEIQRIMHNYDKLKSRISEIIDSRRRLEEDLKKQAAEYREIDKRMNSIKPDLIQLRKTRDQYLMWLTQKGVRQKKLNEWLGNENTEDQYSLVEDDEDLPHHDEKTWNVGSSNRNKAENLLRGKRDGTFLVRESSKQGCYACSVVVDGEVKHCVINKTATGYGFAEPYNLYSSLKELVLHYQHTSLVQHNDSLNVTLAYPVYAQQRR
assayProtocol: Inhibition of isolated enzyme, PI 3-kinase p110δ/p85
Assay type: biochemical
experimentalConditions: recombinant enzyme, 100 μM ATP, average of two experiments
Counter-ions that a name gives are not always drawn.
testReadout: IC50 (nM)

[[record]]
compound = "Cc1ccc([N+](=O)[O-])cc1S(=O)(=O)N(C)N=Cc1cnn2ccc(I)cc12"
readingunit = "nM"
censoringqualifier = "="
testresult = 240

[[record]]
compound = "C#Cc1ccn2ncc(C=NN(C)S(=O)(=O)c3cc([N+](=O)[O-])ccc3C)c2c1"
readingunit = "nM"
censoringqualifier = "="
testresult = 43

[[record]]
compound = "CN(C)c1ccc([N+](=O)[O-])cc1S(=O)(=O)N(C)N=Cc1cnn2ccc(Br)cc12"
readingunit = "nM"
censoringqualifier = "="
testresult = 210

[[record]]
compound = "Cc1ccc([N+](=O)[O-])cc1S(=O)(=O)N(C)N=Cc1cnn2ccccc12 [E1]"
readingunit = "nM"
censoringqualifier = "="
testresult = 3400

[[record]]
compound = "COC(=O)c1ccn2ncc(C=NN(C)S(=O)(=O)c3cc([N+](=O)[O-])ccc3C)c2c1"
readingunit = "nM"
censoringqualifier = "="
testresult = 790

[[record]]
compound = "CN(N=Cc1cnn2ccc(C#N)cc12)S(=O)(=O)c1cc([N+](=O)[O-])ccc1OCc1ccccn1 [E71, hydrochloride]"
readingunit = "nM"
censoringqualifier = "="
testresult = 200

[[record]]
compound = "CN(N=Cc1cnn2ccc(C#N)cc12)S(=O)(=O)c1cc([N+](=O)[O-])ccc1NCCc1c[nH]cn1 [E63, hydrochloride]"
readingunit = "nM"
censoringqualifier = "="
testresult = 320

[[record]]
compound = "O=[N+]([O-])c1cccc(S(=O)(=O)c2nc(-c3cnn4ccc(Br)cc34)cs2)c1"
readingunit = "nM"
censoringqualifier = "="
testresult = 250

[[record]]
compound = "Cc1ccc([N+](=O)[O-])cc1S(=O)(=O)n1ccc(-c2cnn3ccc(Br)cc23)n1"
readingunit = "nM"
censoringqualifier = "="
testresult = 1450

[[record]]
compound = "Cc1ccc([N+](=O)[O-])cc1S(=O)(=O)NN=Cc1cnn2ccc(C#N)cc12"
readingunit = "nM"
censoringqualifier = "="
testresult = 580

[[record]]
compound = "CN(N=Cc1cnn2ccc(C#N)cc12)C(=O)c1cccc([N+](=O)[O-])c1"
readingunit = "nM"
censoringqualifier = "="
testresult = 19

[[record]]
compound = "Cc1ccc([N+](=O)[O-])cc1S(=O)(=O)N(CCN1CCOCC1)N=Cc1cnn2ccc(C#N)cc12"
readingunit = "nM"
censoringqualifier = "="
testresult = 10

[[record]]
compound = "CN(N=Cc1cnn2ccc(Br)cc12)S(=O)(=O)c1cc([N+](=O)[O-])ccc1OCCN1CCOCC1 [E74, hydrochloride]"
readingunit = "nM"
censoringqualifier = "="
testresult = 350

[[record]]
compound = "Cc1ccn2nc(C)c(C=NN(C)S(=O)(=O)c3cc([N+](=O)[O-])ccc3C)c2c1"
readingunit = "nM"
censoringqualifier = ">"
testresult = 1000

[[record]]
compound = "Cc1ccc([N+](=O)[O-])cc1S(=O)(=O)N(C)N=Cc1cnn2ccc(C3CC3)cc12"
readingunit = "nM"
censoringqualifier = ">"
testresult = 1000

[[record]]
compound = "CN(C)CCN(C)c1ccc(C#N)cc1S(=O)(=O)N(C)N=Cc1cnn2ccc(C#N)cc12"
readingunit = "nM"
censoringqualifier = "="
testresult = 380

[[record]]
compound = "Cc1ccc([N+](=O)[O-])cc1S(=O)(=O)N(CCN(C)C)N=Cc1cnn2ccc(C#N)cc12"
readingunit = "nM"
censoringqualifier = "="
testresult = 130

[[record]]
compound = "CN(N=Cc1cnn2ccc(C#N)cc12)S(=O)(=O)c1cc([N+](=O)[O-])cnc1Cl"
readingunit = "nM"
censoringqualifier = "="
testresult = 230

[[record]]
compound = "Cc1ccc([N+](=O)[O-])cc1CN(C)N=Cc1cnn2ccc(C#N)cc12"
readingunit = "nM"
censoringqualifier = "="
testresult = 39


---

studySystem: p110β/p85 (Homo sapiens)
Sequence (P42338 whole entry, species assumed): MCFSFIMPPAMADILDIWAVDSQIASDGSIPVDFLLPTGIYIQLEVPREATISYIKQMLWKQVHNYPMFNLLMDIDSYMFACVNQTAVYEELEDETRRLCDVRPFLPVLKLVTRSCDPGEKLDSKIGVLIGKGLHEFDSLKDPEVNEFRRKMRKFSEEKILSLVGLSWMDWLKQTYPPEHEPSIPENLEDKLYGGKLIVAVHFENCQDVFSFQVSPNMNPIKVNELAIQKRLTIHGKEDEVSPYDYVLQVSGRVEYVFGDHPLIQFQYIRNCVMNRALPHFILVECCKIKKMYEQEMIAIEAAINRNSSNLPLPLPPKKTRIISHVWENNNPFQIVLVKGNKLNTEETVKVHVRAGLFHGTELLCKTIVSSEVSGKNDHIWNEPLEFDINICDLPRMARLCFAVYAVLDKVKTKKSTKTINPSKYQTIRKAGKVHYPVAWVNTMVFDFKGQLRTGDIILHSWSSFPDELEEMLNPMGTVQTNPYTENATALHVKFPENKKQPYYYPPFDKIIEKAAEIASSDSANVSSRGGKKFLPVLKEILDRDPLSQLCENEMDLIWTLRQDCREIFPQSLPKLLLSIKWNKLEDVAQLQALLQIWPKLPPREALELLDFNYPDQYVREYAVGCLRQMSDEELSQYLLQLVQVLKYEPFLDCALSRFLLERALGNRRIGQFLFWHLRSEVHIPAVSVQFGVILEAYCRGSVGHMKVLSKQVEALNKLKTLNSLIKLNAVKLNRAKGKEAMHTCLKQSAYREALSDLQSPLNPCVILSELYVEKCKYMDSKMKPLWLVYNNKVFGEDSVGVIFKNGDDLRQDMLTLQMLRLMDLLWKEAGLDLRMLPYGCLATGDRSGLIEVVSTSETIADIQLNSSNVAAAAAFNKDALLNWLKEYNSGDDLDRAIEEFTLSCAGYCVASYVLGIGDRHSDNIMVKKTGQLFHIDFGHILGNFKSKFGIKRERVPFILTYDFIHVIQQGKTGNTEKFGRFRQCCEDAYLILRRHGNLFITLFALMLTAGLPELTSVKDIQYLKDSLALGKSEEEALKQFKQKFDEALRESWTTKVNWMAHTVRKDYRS
Sequence (P27986 whole entry partner, species assumed): as the sequence (P27986 whole entry partner, species assumed) above
assayProtocol: Inhibition of isolated enzyme, PI 3-kinase p110β/p85
Type: biochemical
experimentalConditions: recombinant enzyme, 100 μM ATP, average of two experiments
Structures can show the parent of a compound that is named as a salt.
testReadout: IC50 (nM)

[[record]]
compound = "CN(N=Cc1cnn2ccc(C#N)cc12)C(=O)c1cccc([N+](=O)[O-])c1"
censoringqualifier = "="
testresult = 72

[[record]]
compound = "Cc1ccc([N+](=O)[O-])cc1S(=O)(=O)N(C)N=Cc1cnn2ccc(C3CC3)cc12"
censoringqualifier = ">"
testresult = 1000

[[record]]
compound = "CN(N=Cc1cnn2ccc(C#N)cc12)S(=O)(=O)c1cc([N+](=O)[O-])ccc1OCc1ccccn1 [E71, hydrochloride]"
censoringqualifier = "="
testresult = 5600

[[record]]
compound = "Cc1ccc([N+](=O)[O-])cc1Sc1nnc(-c2cnn3ccc(Br)cc23)o1"
censoringqualifier = ">"
testresult = 1000

